Measured values drawn from paper PMC12723449 for this set.

- TARGET OR TEST SYSTEM: SIRT2 (Homo sapiens)
- Construct: For assay experiments, strep-tagged human SIRT1134−747 and SIRT256-356 were expressed and purified as previously; Strep-tag; made in house; host or cells: E. coli BL21 Star (DE3)
- Sequence (Q8IXJ6 56-356 limits assumed): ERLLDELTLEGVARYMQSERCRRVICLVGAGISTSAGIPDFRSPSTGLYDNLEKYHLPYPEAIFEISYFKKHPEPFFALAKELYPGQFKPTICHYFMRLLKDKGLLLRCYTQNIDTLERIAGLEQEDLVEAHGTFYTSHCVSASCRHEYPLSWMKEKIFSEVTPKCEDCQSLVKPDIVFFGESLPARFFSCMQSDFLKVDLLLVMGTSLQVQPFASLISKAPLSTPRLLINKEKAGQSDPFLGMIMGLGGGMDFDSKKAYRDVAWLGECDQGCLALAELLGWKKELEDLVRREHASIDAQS
- EXPERIMENTAL PROTOCOL: Fluorescence-based demyristoylation assay (BSA-Assay)
- Type: biochemical
- CONDITION INFO: BSA-Assay, 25 °C; read-out: SIRT2 (demyr.) IC50
So basically, if IC50 comes in under 0.05 µM it's y, and if it's 0.05 µM or more it's n.

COCCn1cc(COc2cccc(Cc3cnc(NC(=O)CSc4nc(C)cc(C)n4)s3)c2)nn1 [Compound 1, reference compound]: n
CCCCCCCCCCCCc1cn(CCC[C@H](NC(=O)[C@H](CCCCN)NC(=O)[C@@H]2CCCN2C(=O)[C@H](CC(C)C)NC(=O)[C@H](C)NC(=O)[C@H](CCC(=O)O)NC(C)=O)C(=O)N[C@H](C(=O)NCC(=O)NCC(N)=O)[C@@H](C)O)nn1: n
CCCCCCCCCCCCc1cn(CCCC[C@H](NC(=O)[C@H](CCCCN)NC(C)=O)C(N)=O)nn1: n
CCCCCCCCCCCCc1cn(CCCC[C@H](NC(=O)[C@H](CCCCN)NC(=O)[C@@H]2CCCN2C(=O)[C@H](CC(C)C)NC(=O)[C@H](C)NC(=O)[C@H](CCC(=O)O)NC(C)=O)C(=O)N[C@H](C(=O)NCC(=O)NCC(N)=O)[C@@H](C)O)nn1: y

We next turn to a different molecule, shown below.
Please determine if Cc1cc(C)nc(SCC(=O)Nc2ncc(Cc3cccc(OCc4c[nH]nn4)c3)s2)n1 is below 0.05 µM in terms of IC50.
n

---

- TARGET OR TEST SYSTEM: SIRT2 (Homo sapiens)
- Construct: For assay experiments, strep-tagged human SIRT1134−747 and SIRT256-356 were expressed and purified as previously; Strep-tag; made in house; host or cells: E. coli BL21 Star (DE3)
- EXPERIMENTAL PROTOCOL: Fluorescence-based demyristoylation assay (BSA-Assay)
- Type: biochemical
- CONDITION INFO: 15 min NAD+ preincubation; read-out: IC50, SIRT2 demyristoylation after NAD+ preincubation
QUANTITY MEASURED: IC50 (nM)
The figure you give is taken to be in nM; do not add the unit.

// solved cases for IC50 follow
CCCCCCCCCCCCc1cn(CCCC[C@H](NC(=O)[C@H](CCCCN)NC(=O)[C@@H]2CCCN2C(=O)[C@H](CC(C)C)NC(=O)[C@H](C)NC(=O)[C@H](CCC(=O)O)NC(C)=O)C(=O)N[C@H](C(=O)NCC(=O)NCC(N)=O)[C@@H](C)O)nn1: 3.6
CCCCCCCCCCCCc1cn(CCCC[C@H](NC(=O)[C@H](CCCCN)NC(C)=O)C(N)=O)nn1: 36

Fill in the blank: the reported IC50 of CCCCCCCCCCCCc1cn(CCC[C@H](NC(=O)[C@H](CCCCN)NC(=O)[C@@H]2CCCN2C(=O)[C@H](CC(C)C)NC(=O)[C@H](C)NC(=O)[C@H](CCC(=O)O)NC(C)=O)C(=O)N[C@H](C(=O)NCC(=O)NCC(N)=O)[C@@H](C)O)nn1 is ____.
760
